Data origin: the supplement of paper PMC11577813

Tested on: lanierone-responsive B-neuron OSN class (ItypOR36)
Assay: net action potential response of lanierone B-neuron (blank-subtracted) (spikes/s (Hz)); higher = stronger excitation
Conditions: co-localized A-neuron class: p-cymene; 10 µg on filter paper; neuron: B neuron (small spike amplitude)
Overview of recorded net action potential response for various molecules
Please reply with the number alone, leaving off any unit.

molecule	net action potential response
Cc1ccc(C(C)C)cc1	-3.33
C=C(C)C1CC=C(C)C(=O)C1 (racemic) [(±)-Carvone]	0
CCC1CCC2(CCCO2)O1 (racemic) [(±)-Chalcogran]	-2.67
COc1ccc(C)cc1OC	-2
CC1=CCC2C(C1)C2(C)C (single isomer, unassigned; (+)) [(+)-3-Carene]	-3.33

Returns the measured net action potential response for the input molecule. Input: CC(=O)OCc1ccccc1 [Benzyl acetate]
0.667

Try CC(C)=CCC/C(C)=C/C=O [Citral (E/Z mix)] next.
-0.667

Try CCC/C=C/CO next.
2

Try C=CCc1ccc(OC)c(OC)c1 next.
-3.33

Try CC(C)[C@@]12CC[C@@](C)(O)[C@@H]1C2 [(+)-trans-4-Thujanol] next.
-1.33

* * *

System: lanierone-responsive B-neuron OSN class (ItypOR36)
Test: net action potential response of lanierone B-neuron (blank-subtracted) (spikes/s (Hz)); higher = stronger excitation
Details: co-localized A-neuron class: (+)-trans-4-thujanol; 10 µg on filter paper; neuron: B neuron (small spike amplitude)
quantity.name: net action potential response
Please reply with the number alone, leaving off any unit.

Completed entries (count: 5):
compound	net action potential response
CC(=O)OC/C=C(\C)CCC=C(C)C [Geranyl acetate]	-2
C=C(C)[C@@H]1CC=C(C)CC1 [(-)-Limonene]	2.5
COc1ccccc1 [Anisole]	-2.5
C=CC(=C)CCC=C(C)C [Myrcene]	2.5
C=C1[C@@H]2CC[C@@H](C2)C1(C)C (racemic) [(±)-Camphene]	0

API: value(readout= net action potential response, system= lanierone-responsive B-neuron OSN class (ItypOR36), query= CC1=CCC(=C(C)C)CC1 [Terpinolene] )
-3

Try COc1ccc(C)cc1 [4-Methyl anisole] next.
-2

Try CC(C)CCO [3-Methyl-1-butanol] next.
-4

Try CCC(C)CO (racemic) [(±)-2-Methyl-1-butanol] next.
3.5

Try CCC/C=C\CO next.
2

Try CC1=CCC2CC1C2(C)C (stereo not drawn) [(+)-α-Pinene] next.
2

Try CCCCCCO [1-Hexanol] next.
0

Try CC(C)=CCC/C(C)=C/C=O [Citral (E/Z mix)] next.
2

* * *

System: lanierone-responsive B-neuron OSN class (ItypOR36)
Assay: net action potential response of lanierone B-neuron (blank-subtracted) (spikes/s (Hz)); higher = stronger excitation
Conditions: co-localized A-neuron class: p-cymene; 10 µg on filter paper; neuron: B neuron (small spike amplitude)
Overview of recorded net action potential response for various compounds
Please reply with the number alone, leaving off any unit.

compound	reported
C[C@]12CCC[C@](C)(OC1)O2 (racemic) [(±)-Frontalin]	-4
CC1=CCC(C(C)C)=CC1	-4

Returns the measured net action potential response for the input compound. Input: C=C(C)[C@@H]1CC=C(C)CC1 [(-)-Limonene]
-1.33

Try CC12CCC(CC1)C(C)(C)O2 next.
0

Try C=CC(=C)CC(O)C=C(C)C (racemic) [(±)-Ipsdienol] next.
-0.667

Try CC(=O)OC/C=C(\C)CCC=C(C)C [Geranyl acetate] next.
-2

Try C[C@@H]1C(=O)C[C@H]2C[C@@H]1C2(C)C [(+)-Isopinocamphone] next.
-0.667

Try C=Cc1ccc(OC)cc1 next.
0

Try CCC/C=C\CO next.
2.67

Try CC1(C)C2CC=C(CO)C1C2 (racemic) [(±)-Myrtenol] next.
0

Try CC[C@H]1O[C@]2(C)CCC[C@H]1O2 (racemic) [(±)-exo-Brevicomin] next.
-3.33

Try C=Cc1ccccc1 next.
-6

Try C=CC(O)CCCCC (racemic) [(±)-1-Octen-3-ol] next.
0.667

Try CC(=O)OCCc1ccccc1 [2-Phenethyl acetate] next.
-5.33

Try CC(C)CCO next.
-0.667

Try CC1=C[C@@H](O)[C@H]2C[C@@H]1C2(C)C [(-)-trans-Verbenol] next.
-2

Try CC12CCC(CC1=O)C2(C)C (racemic) [(±)-Camphor] next.
1

Try C=C1CCC2(C(C)C)CC12 (racemic) [(±)-Sabinene] next.
-4

Try CCCCCCO next.
-2.67

Try C=C1[C@@H]2CC[C@@H](C2)C1(C)C (racemic) [(±)-Camphene] next.
0

Try CCCCCC(O)CC (racemic) [(±)-3-Octanol] next.
-3.33

Try CCCCCC=O next.
3.33

Try OCCc1ccccc1 next.
6

Try CC1=CCC2CC1C2(C)C (stereo not drawn) [(+)-α-Pinene] next.
1.33

* * *

System: (4S)-cis-verbenol A-neuron OSN class
Assay: net action potential response of A-neuron (blank-subtracted) (spikes/s (Hz)); higher = stronger excitation
Details: 10 µg on filter paper; neuron: A neuron (large spike amplitude)
Overview of recorded net action potential response for various molecules
Please reply with the number alone, leaving off any unit.

molecule	net action potential response
CCCCCC=O [Hexanal]	0.667
C=Cc1ccc(OC)cc1 [4-Vinyl anisole]	0.667
CC1=CCC(C(C)C)=CC1 [γ-Terpinene]	-5.33
C=C1[C@@H]2CC[C@@H](C2)C1(C)C (racemic) [(±)-Camphene]	4
CC(=O)OCc1ccccc1 [Benzyl acetate]	1.33
C=CC(=C)C[C@@H](O)CC(C)C (racemic) [(±)-Ipsenol]	1.33
Cc1ccc(C(C)C)cc1 [p-Cymene]	-2
CC/C=C\CCO	-0.667

Returns the measured net action potential response for the input molecule. Input: CCC1CCC2(CCCO2)O1 (racemic) [(±)-Chalcogran]
1.33

Try CC1=C[C@@H](O)[C@H]2C[C@@H]1C2(C)C [(-)-trans-Verbenol] next.
52.7

Try C=CCc1ccc(OC)c(OC)c1 [Eugenol methyl ether] next.
-0.667

Try CC(=O)OCCc1ccccc1 [2-Phenethyl acetate] next.
-2

Try CC1(C)C2CC=C(CO)C1C2 (racemic) [(±)-Myrtenol] next.
4.67

Try CC1=CC(=O)[C@@H]2C[C@H]1C2(C)C [(-)-Verbenone] next.
24.7

Try CC/C=C/CCO next.
2.67

Try C[C@]12CCC[C@](C)(OC1)O2 (racemic) [(±)-Frontalin] next.
-2

Try CC(C)CCO [3-Methyl-1-butanol] next.
6

Try CC(C)=CCC/C(C)=C/C=O [Citral (E/Z mix)] next.
0

Try CCC/C=C/CO next.
2

Try C=CC(=C)CC(O)C=C(C)C (racemic) [(±)-Ipsdienol] next.
-2.67

Try CC1=CCC2CC1C2(C)C (stereo not drawn) [(-)-α-Pinene] next.
-2.67

Try CC1=CCC(=C(C)C)CC1 [Terpinolene] next.
0

Try CCCCCCO [1-Hexanol] next.
-1.33

Try CC1=CC(C)(C)C=C(O)C1=O [Lanierone] next.
1.33

Try CCC/C=C\CO next.
1.33

Try C=Cc1ccccc1 [Styrene] next.
1.33

* * *

Tested on: p-cymene A-neuron OSN class
Experiment: net action potential response of A-neuron (blank-subtracted) (spikes/s (Hz)); higher = stronger excitation
Details: 10 µg on filter paper; neuron: A neuron (large spike amplitude)
quantity.name: net action potential response
Please reply with the number alone, leaving off any unit.

Completed entries (count: 6):
molecule	quantity.name	reported
CCC/C=C/CO	net action potential response	1.33
CC(=O)OCCc1ccccc1 [2-Phenethyl acetate]	net action potential response	-1.33
CC(=O)OCc1ccccc1 [Benzyl acetate]	net action potential response	0
COc1ccc(C)cc1	net action potential response	44
CCC/C=C/C=O [(E)-hex-2-enal]	net action potential response	3
C=CC(=C)C[C@@H](O)CC(C)C (racemic) [(±)-Ipsenol]	net action potential response	-4

Consider the record given below.
Returns the measured net action potential response for the input molecule. Input: CCCCCC=O
2

* * *

System: lanierone-responsive B-neuron OSN class (ItypOR36)
Experiment: net action potential response of lanierone B-neuron (blank-subtracted) (spikes/s (Hz)); higher = stronger excitation
Details: co-localized A-neuron class: ipsdienol; 10 µg on filter paper; neuron: B neuron (small spike amplitude)
Overview of recorded net action potential response for various compounds

Completed entries (count: 3):
compound	net action potential response
COc1ccc(C)cc1OC	2
OCCc1ccccc1	-3.33
CC12CCC(CC1)C(C)(C)O2	0

API: value(readout= net action potential response, system= lanierone-responsive B-neuron OSN class (ItypOR36), query= COc1ccc(C)cc1 )
0.667

Try C=CC(=C)CCC=C(C)C next.
2.67

Try C=CC(=C)CC(O)C=C(C)C (racemic) [(±)-Ipsdienol] next.
-4.67
